// provenance: patent US7332495B2

- Tested on: rat
- PROTOCOL: Rat tail flick model (focused radiant heat)
- Type: in vivo
- COND: po, read-out: Analgesia ED50
Record form. Attribute: ED50. Fill in for each entry.
Kindly provide the numeric value in mg/kg only, without the unit symbol.

Query string: Which ED50 value belongs to `Nc1ccc(CN2CCN(CC(=O)c3ccccc3)CC2)cc1` ?
Result string: 162

Query string: Same lookup for CN1CC[C@]23c4c5ccc(O)c4O[C@H]2[C@@H](O)C=C[C@H]3[C@H]1C5 [Morphine, reference compound] , please.
Result string: 23.3

* * *

- System: rat
- PROTOCOL: animal or person
- COND: Rattus norvegicus, ip, read-out: Analgesic ratio (More than 60 seconds)
For each entry below, report its responders at 20 mg/kg value.
# unit: % | format: bare number

Query string: So what's the measured responders at 20 mg/kg for this one? Cc1ccc(C(=O)CN2CCN(C(C)c3ccc([N+](=O)[O-])cc3)CC2)cc1 (stereo not drawn)
Result string: 0

Query string: Another compound to look at: `COc1ccc(CN2CCN(CC(=O)c3ccccc3)CC2)cc1`
Result string: 70

Query string: Follow-up item: `COc1cccc(CN2CCN(CC(=O)c3ccccc3)CC2)c1`
Result string: 10

Query string: Same thing, different compound: `Nc1ccc(CN2CCN(CC(=O)c3ccccc3)CC2)cc1`
Result string: 80

Query string: Then what about the compound Cc1ccc(C(=O)CN2CCN(C(C)c3ccccc3)CC2)cc1 (stereo not drawn) ?
Result string: 10

Query string: Repeat with `O=C(CN1CCN(Cc2ccc3c(c2)OCO3)CC1)c1ccccc1`
Result string: 50

Query string: // query: `CC(=O)Nc1ccc(CN2CCN(CC(=O)c3ccccc3)CC2)cc1`
Result string: 50

Query string: Moving on to the next compound: CC(c1ccccc1)N1CCN(CC(=O)c2ccccc2)CC1 (stereo not drawn)
Result string: 100

Query string: Now the same for `O=C(CN1CCN(CCc2ccccc2)CC1)c1ccccc1`
Result string: 70

* * *

- Test system: Kunming mice
- PROTOCOL: Sedation: spontaneous activities recorded with alternating current tube
- Type: in vivo
- COND: i.p. 20 mg/Kg; spontaneous activities
Exercise: for every item that follows, state its recorded Sedation.

Query string: Fill blank: measured Sedation of the compound O=C(CN1CCN(Cc2cccc3ccccc23)CC1)c1ccccc1 [IV-58] is ____.
Result string: 32%

Query string: Also Cc1ccc(C(=O)CN2CCN([C@@H](C)c3ccccc3)CC2)cc1 [IV-42] , if possible.
Result string: 0%

Query string: Now give it for C[C@@H](c1ccccc1)N1CCN(CC(=O)c2ccccc2)CC1 [IV-39] too.
Result string: 35%

Query string: And CCOC(=O)C(c1ccccc1)N1CCN(CC(=O)c2ccccc2)CC1 (centres unmarked) [IV-5] ?
Result string: 44%

Query string: Similarly, COc1ccc(C(=O)CN2CCN(CCC(O)c3ccccc3)CC2)cc1 (centres unmarked) [IV-22] ?
Result string: 84%
